- Tested on: CD69 in human whole blood
- ASSAY EXPLANATION: Induction of CD69 in human whole blood (hWB)
- Type: cell-based
- TEST CONTEXT: heparinized human whole blood, 17 h, CD69 surface staining; 100% set to 1 uM resiquimod; average where assay repeated
Here the recorded pEC50 is given for each entry.
Keep in mind that pEC50 stands for -log10 of concentration in molar terms.

# example entries with known answers
1) COc1cc(C(=O)N2CC3(CNC3)C2)ccc1Cn1ncc2nc(N)nc(NCC3CC4(CC4)C3)c21 [Compound 172]: 6.52
2) COc1cc(C(=O)NC2CCN(C)CC2)ccc1Cn1nc(C)c2nc(N)nc(NCC3CC4(CC4)C3)c21 [Compound 207]: 7.03
3) COc1cc(C(=O)N2C[C@@H]3C[C@H]2CN3C)ccc1Cn1ncc2nc(N)nc(NCC3CC4(C3)CC4(F)F)c21 (stereo partly shown) [Compound 151]: 7.49

Given COc1cc(CNCCO)ccc1Cn1ncc2nc(N)nc(NCC3CC4(CC4)C3)c21 [Compound 170] , state its recorded pEC50.
8.68

Now consider COc1cc(CN2C[C@H]3COC[C@H]3C2)ccc1Cn1ncc2nc(N)nc(NCC3CC4(C3)CC4F)c21 (stereo partly shown) [Compound 119] and answer again.
6.59

Also CCC[C@@H](CCO)Nc1nc(N)nc2cnn(Cc3ncc(C4=CC5(CCN(CC(C)C)CC5)C4)cc3OC)c12 [Compound 275] ?
8.92

Check COc1cc(CN2CC3(C2)CN(C(C)C)C3)ccc1Cn1ncc2nc(N)nc(NCc3cc(C)on3)c21 [Compound 213] too.
8.64

Values were extracted from patent US20230122249A1.
